# System: HLA-DRB1*0401-transgenic mice splenocytes
# Format: in vivo, mouse
# Set-up: key: −: no binding/T cell response; +/−: weak binding/T cell response; +: intermediate binding/T cell response; ++: strong binding/T cell response
# experimentalParameters: CD4+ fraction of splenocytes, IFN-γ ELISpot
valueType: DRB1*0401 mice CD4+ (T cell response)

YRHTWDRHDEGAAQGDDDVW [Peptide 1503] :: −
TSGVMTRGRLKAESTVAPEEDTDE [Peptide 1504] :: ++
PSLILVSQYTPDSTPCHRGDNQLQVQHTR [Peptide 1500] :: +
QWKEPDVYYTSAFVFPTKDVALR [Peptide 1501] :: +

Now look at this entry.
Qu. May I ask what DRB1*0401 mice CD4+ (T cell response) has been recorded for QGQNLKYQEFFWDANDIYRIF [Peptide 1505] ?
Ans. ++
